System: Sus scrofa
Assay: Anti-obesity activity in lean Landrace Yorkshire Duroc pig assessed as food intake at 30 nmol/kg, sc measured at 72 to 96 hrs post dose (reference value: 1.8 to 2.1 kg)
Assay type: functional
Numbered stars: 1 amine (or outer) side, 2 acyl side, 3 side chain; on linkers, the order of the positions; unused ones are H or OH. Square brackets hold non-standard residues; d marks the D form. Peptide text beside a SMILES is read from it. * marks the point of attachment. Phe(4-CH2SO3H) = N[C@@H](Cc1ccc(CS(=O)(=O)O)cc1)C(=O)O; C18 diacid = O=C(O)CCCCCCCCCCCCCCCCC(=O)*; γGlu = O=C(O)[C@H](CCC(=O)[*:2])N[*:1]; NMeF = CN[C@@H](Cc1ccccc1)C(=O)O; NMeD = CN[C@@H](CC(=O)O)C(=O)O; Nle = CCCC[C@H](N)C(=O)O; AEEA = NCCOCCOCC(=O)O
observation type: Activity (kg)
Numbers only, in kg.

Given CCCC[C@H](NC(=O)[C@H](Cc1ccc(CS(=O)(=O)O)cc1)NC(=O)[C@H](CC(=O)O)NC(=O)COCCOCCNC(=O)COCCOCCNC(=O)CC[C@H](NC(=O)CCCCCCCCCCCCCCCCC(=O)O)C(=O)O)C(=O)NCC(=O)N[C@@H](Cc1c[nH]c2ccccc12)C(=O)N[C@@H](CCCC)C(=O)N(C)[C@@H](CC(=O)O)C(=O)N(C)[C@@H](Cc1ccccc1)C(N)=O ({C18 diacid-γGlu-AEEA-AEEA}-D[Phe(4-CH2SO3H)][Nle]GW[Nle][NMeD][NMeF]-NH2) , state its recorded Activity.
2.2

---

Molecular target: Cholecystokinin receptor type A (Homo sapiens, UniProt P32238)
Sequence (P32238 whole entry): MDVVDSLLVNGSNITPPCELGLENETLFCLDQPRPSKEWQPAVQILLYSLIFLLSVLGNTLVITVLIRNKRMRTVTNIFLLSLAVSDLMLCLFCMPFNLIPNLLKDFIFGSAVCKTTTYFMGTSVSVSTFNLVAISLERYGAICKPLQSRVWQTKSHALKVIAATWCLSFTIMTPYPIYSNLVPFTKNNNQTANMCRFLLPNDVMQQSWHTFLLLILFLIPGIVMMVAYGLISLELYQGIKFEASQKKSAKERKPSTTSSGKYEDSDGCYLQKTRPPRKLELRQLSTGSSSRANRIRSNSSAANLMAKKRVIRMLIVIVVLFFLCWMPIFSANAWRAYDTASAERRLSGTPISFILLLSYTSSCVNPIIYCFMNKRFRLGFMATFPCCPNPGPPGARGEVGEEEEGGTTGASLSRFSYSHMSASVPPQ
Test: Displacement of [125I]-CCK-8 from human CCK1R expressed in human 1321N1 cell membranes after 2 hrs by SPA assay
Numbered stars: 1 amine (or outer) side, 2 acyl side, 3 side chain; on linkers, the order of the positions; unused ones are H or OH. Square brackets hold non-standard residues; d marks the D form. Peptide text beside a SMILES is read from it. * marks the point of attachment. Phe(4-CH2SO3H) = N[C@@H](Cc1ccc(CS(=O)(=O)O)cc1)C(=O)O; C20 diacid = O=C(O)CCCCCCCCCCCCCCCCCCC(=O)*; sY = N[C@@H](Cc1ccc(OS(=O)(=O)O)cc1)C(=O)O; C18 diacid = O=C(O)CCCCCCCCCCCCCCCCC(=O)*; γGlu = O=C(O)[C@H](CCC(=O)[*:2])N[*:1]; 1Nal = N[C@@H](Cc1cccc2ccccc12)C(=O)O; NMeF = CN[C@@H](Cc1ccccc1)C(=O)O; dNMeD = CN[C@H](CC(=O)O)C(=O)O; Nle = CCCC[C@H](N)C(=O)O; AEEA = NCCOCCOCC(=O)O
observation type: IC50 (nM)
Give bare numbers, in nM.

Field: IC50. Fill in for each record below.
1. CCCC[C@H](NC(=O)[C@H](Cc1c[nH]c2ccccc12)NC(=O)CNC(=O)[C@H](CC(C)C)NC(=O)[C@H](Cc1ccc(CS(=O)(=O)O)cc1)NC(=O)[C@H](CC(=O)O)NC(=O)COCCOCCNC(=O)COCCOCCNC(=O)CC[C@H](NC(=O)CCCCCCCCCCCCCCCCCCC(=O)O)C(=O)O)C(=O)N(C)[C@H](CC(=O)O)C(=O)N(C)[C@@H](Cc1ccccc1)C(N)=O ({C20 diacid-γGlu-AEEA-AEEA}-D[Phe(4-CH2SO3H)]LGW[Nle][dNMeD][NMeF]-NH2)
2. CCCC[C@H](NC(=O)[C@H](Cc1ccc(OS(=O)(=O)O)cc1)NC(=O)[C@H](CC(=O)O)NC(=O)COCCOCCNC(=O)COCCOCCNC(=O)CC[C@H](NC(=O)CCCCCCCCCCCCCCCCC(=O)O)C(=O)O)C(=O)NCC(=O)N[C@@H](Cc1c[nH]c2ccccc12)C(=O)N[C@@H](CCCC)C(=O)N[C@@H](CC(=O)O)C(=O)N[C@@H](Cc1cccc2ccccc12)C(N)=O ({C18 diacid-γGlu-AEEA-AEEA}-D[sY][Nle]GW[Nle]D[1Nal]-NH2)
3. CCCC[C@H](NC(=O)[C@H](Cc1ccc(O)cc1)NC(=O)[C@H](CC(=O)O)NC(=O)COCCOCCNC(=O)COCCOCCNC(=O)CC[C@H](NC(=O)CCCCCCCCCCCCCCCCC(=O)O)C(=O)O)C(=O)NCC(=O)N[C@@H](Cc1c[nH]c2ccccc12)C(=O)N[C@@H](CCCCNC(=O)Nc1ccccc1C)C(=O)N[C@@H](CC(=O)O)C(=O)N(C)[C@@H](Cc1ccccc1)C(N)=O

1. 0.0407
2. 0.0759
3. 0.339

---

Exercise: for every item that follows, state its recorded EC50.
Biological target: Gastrin/cholecystokinin type B receptor (Homo sapiens, UniProt P32239)
Sequence (P32239 whole entry): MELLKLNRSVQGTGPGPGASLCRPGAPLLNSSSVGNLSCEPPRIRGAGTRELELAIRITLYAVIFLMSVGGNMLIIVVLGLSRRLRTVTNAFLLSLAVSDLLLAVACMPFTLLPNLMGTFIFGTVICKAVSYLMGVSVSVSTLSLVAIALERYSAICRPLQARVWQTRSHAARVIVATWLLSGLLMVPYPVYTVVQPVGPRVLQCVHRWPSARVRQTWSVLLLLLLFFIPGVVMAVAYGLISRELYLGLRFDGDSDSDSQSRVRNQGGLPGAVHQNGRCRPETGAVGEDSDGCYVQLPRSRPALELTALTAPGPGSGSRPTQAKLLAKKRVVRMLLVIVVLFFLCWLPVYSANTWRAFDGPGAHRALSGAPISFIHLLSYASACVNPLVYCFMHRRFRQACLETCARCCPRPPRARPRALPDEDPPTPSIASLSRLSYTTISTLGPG
Experiment: Agonist activity at human CCK2R expressed in human 1321N1 cells assessed as IP1 accumulation after 1 hr by HTRF assay
Numbered stars: 1 amine (or outer) side, 2 acyl side, 3 side chain; on linkers, the order of the positions; unused ones are H or OH. Square brackets hold non-standard residues; d marks the D form. Peptide text beside a SMILES is read from it. * marks the point of attachment. Phe(4-CH2SO3H) = N[C@@H](Cc1ccc(CS(=O)(=O)O)cc1)C(=O)O; sY = N[C@@H](Cc1ccc(OS(=O)(=O)O)cc1)C(=O)O; C18 diacid = O=C(O)CCCCCCCCCCCCCCCCC(=O)*; γGlu = O=C(O)[C@H](CCC(=O)[*:2])N[*:1]; Nle = CCCC[C@H](N)C(=O)O; AEEA = NCCOCCOCC(=O)O
Answers are plain numbers, in nM.

Answered cases to consult:
Given CCCC[C@H](NC(=O)[C@H](Cc1ccc(OS(=O)(=O)O)cc1)NC(=O)[C@H](CC(=O)O)NC(=O)COCCOCCNC(=O)COCCOCCNC(=O)CC[C@H](NC(=O)CCCCCCCCCCCCCCCCC(=O)O)C(=O)O)C(=O)NCC(=O)N[C@@H](Cc1c[nH]c2ccccc12)C(=O)N[C@H](C(=O)N[C@@H](CC(=O)O)C(=O)N[C@@H](Cc1ccccc1)C(N)=O)[C@@H](C)CC ({C18 diacid-γGlu-AEEA-AEEA}-D[sY][Nle]GWIDF-NH2) , state its recorded EC50.
0.631

Then CCCC[C@H](NC(=O)[C@H](Cc1c[nH]c2ccccc12)NC(=O)CNC(=O)[C@H](CC(C)C)NC(=O)[C@H](Cc1ccc(OS(=O)(=O)O)cc1)NC(=O)[C@H](CC(=O)O)NC(=O)COCCOCCNC(=O)COCCOCCNC(=O)CC[C@H](NC(=O)CCCCCCCCCCCCCCCCC(=O)O)C(=O)O)C(=O)N[C@@H](CC(=O)O)C(=O)N(C)[C@@H](Cc1ccccc1)C(N)=O ?
0.457

Kindly consider the entry below.
Given CCCC[C@H](NC(=O)[C@H](Cc1c[nH]c2ccccc12)NC(=O)CNC(=O)[C@H](CC(C)C)NC(=O)[C@H](Cc1ccc(CS(=O)(=O)O)cc1)NC(=O)[C@H](CC(=O)O)NC(=O)COCCOCCNC(=O)COCCOCCNC(=O)CC[C@H](NC(=O)CCCCCCCCCCCCCCCCC(=O)O)C(=O)O)C(=O)N[C@@H](CC(=O)O)C(=O)N[C@@H](Cc1ccccc1)C(N)=O ({C18 diacid-γGlu-AEEA-AEEA}-D[Phe(4-CH2SO3H)]LGW[Nle]DF-NH2) , state its recorded EC50.
0.447

---

Exercise: for every item that follows, state its recorded EC50.
Molecular target: Gastrin/cholecystokinin type B receptor (Homo sapiens, UniProt P32239)
Test: Agonist activity at human CCK2R expressed in human 1321N1 cells assessed as IP1 accumulation after 1 hr by HTRF assay
Numbered stars: 1 amine (or outer) side, 2 acyl side, 3 side chain; on linkers, the order of the positions; unused ones are H or OH. Square brackets hold non-standard residues; d marks the D form. Peptide text beside a SMILES is read from it. * marks the point of attachment. sY = N[C@@H](Cc1ccc(OS(=O)(=O)O)cc1)C(=O)O; C18 diacid = O=C(O)CCCCCCCCCCCCCCCCC(=O)*; NMe1Nal = CN[C@@H](Cc1cccc2ccccc12)C(=O)O; γGlu = O=C(O)[C@H](CCC(=O)[*:2])N[*:1]; Glutaryl = O=C(CCCC(=O)[*:2])[*:1]; dNMeD = CN[C@H](CC(=O)O)C(=O)O; Nle = CCCC[C@H](N)C(=O)O; Dap = NC[C@H](N)C(=O)O; AEEA = NCCOCCOCC(=O)O
Numbers only, in nM.

Answered cases to consult:
Given CCCC[C@H](NC(=O)[C@H](CNC(=O)CCCC(=O)O)NC(=O)[C@H](CC(=O)O)NC(=O)COCCOCCNC(=O)COCCOCCNC(=O)CC[C@H](NC(=O)CCCCCCCCCCCCCCCCC(=O)O)C(=O)O)C(=O)NCC(=O)N[C@@H](Cc1c[nH]c2ccccc12)C(=O)N[C@@H](CCCC)C(=O)N[C@@H](CC(=O)O)C(=O)N[C@@H](Cc1ccccc1)C(N)=O ({C18 diacid-γGlu-AEEA-AEEA}-D[Dap](Glutaryl)[Nle]GW[Nle]DF-NH2) , state its recorded EC50.
0.38

Then CCCC[C@H](NC(=O)[C@H](Cc1c[nH]c2ccccc12)NC(=O)CNC(=O)[C@H](CC(C)C)NC(=O)[C@H](Cc1ccc(OS(=O)(=O)O)cc1)NC(=O)[C@H](CC(=O)O)NC(=O)COCCOCCNC(=O)COCCOCCNC(=O)CC[C@H](NC(=O)CCCCCCCCCCCCCCCCC(=O)O)C(=O)O)C(=O)N(C)[C@H](CC(=O)O)C(=O)N(C)[C@@H](Cc1cccc2ccccc12)C(N)=O ({C18 diacid-γGlu-AEEA-AEEA}-D[sY]LGW[Nle][dNMeD][NMe1Nal]-NH2) ?
151

Kindly consider the entry below.
Given CCCC[C@H](NC(=O)[C@H](Cc1c[nH]c2ccccc12)NC(=O)CNC(=O)[C@H](CCC(=O)O)NC(=O)[C@H](Cc1ccc(OS(=O)(=O)O)cc1)NC(=O)[C@H](CC(=O)O)NC(=O)COCCOCCNC(=O)COCCOCCNC(=O)CC[C@H](NC(=O)CCCCCCCCCCCCCCCCC(=O)O)C(=O)O)C(=O)N[C@@H](CC(=O)O)C(=O)N[C@@H](Cc1ccccc1)C(N)=O ({C18 diacid-γGlu-AEEA-AEEA}-D[sY]EGW[Nle]DF-NH2) , state its recorded EC50.
0.295

Cited source: ChEMBL document CHEMBL4368907
